Origin of measurements: patent EP4559927A1

# Tested on: NSC-34 cells
# protocol: Evaluation on cell membrane permeability by flow cytometry
# Format: cell-based, mouse
# appliedConditions: median fluorescence intensity of FAM (detector FL2), 25 µM construct, 0.42% DMSO, 20 hours at 37°C, 5% CO2
Primed or numbered codes have the meaning given here. FAM = 5(6)-carboxyfluorescein; FAM″ = C-terminal FAM dye
reportedMetric: MFI
Answer with the value's number alone.

- substance: "Ac-KKRTLRKDDEERKKR-FAM (Ac-KKRTLRKDDEERKKR-{FAM}) [Example 5]"
  readoutNumber: 14.8
- substance: "Ac-KKRTLRKEDEDRKKR-FAM (Ac-KKRTLRKEDEDRKKR-{FAM″}) [Example 3]"
  readoutNumber: 13.8
- substance: "Ac-KKRTLRKDERKKR-FAM (Ac-KKRTLRKDERKKR-{FAM}) [Example 1]"
  readoutNumber: 16.3
- substance: "Ac-KKRTLRKEEDDRKKR-FAM (Ac-KKRTLRKEEDDRKKR-{FAM}) [Example 4]"
  readoutNumber: 14.3

MFI measured on Ac-KKRTLRKDEDERKKR-FAM [Example 6] = 15.2

Entry Ac-KKRTLRKEDEDEDRKKR-FAM (Ac-KKRTLRKEDEDEDRKKR-{FAM}) [Example 7] , MFI reported as 14.3

Summary for this substance, Ac-KKRTLRKEDRKKR-FAM (Ac-KKRTLRKEDRKKR-{FAM}) [Example 2] : MFI is 15.7
